Reported melting point values for a set of compounds

Observe how each entry below is paired with its result.
| compound | melting point |
| --- | --- |
| O=C(c1ccncc1)N1CCn2c3ccccc3c(=O)c3cccc1c32 [Compound 7c] | 233 to 235 °C |
| Cc1cccc(C(=O)N2CCn3c4ccccc4c(=O)c4cccc2c43)n1 [Compound 7e] | 246 to 248 °C |
| Cc1ccc(C(=O)N2CCn3c4ccccc4c(=O)c4cccc2c43)nc1 [Compound 7f] | 252 to 254 °C |
| O=C(c1ccc(O)cc1)N1CCn2c3ccccc3c(=O)c3cccc1c32 [Compound 7k] | 265 to 267 °C |
| O=C(c1ccccn1)N1CCn2c3ccccc3c(=O)c3cccc1c32 [Compound 7a] | 232 to 234 °C |
| O=C(c1ccccc1F)N1CCn2c3ccccc3c(=O)c3cccc1c32 [Compound 7p] | 225 to 227 °C |
| O=C(c1ccc(F)cc1)N1CCn2c3ccccc3c(=O)c3cccc1c32 [Compound 7r] | 236 to 238 °C |
| O=C(c1ccc(C(F)(F)F)cc1)N1CCn2c3ccccc3c(=O)c3cccc1c32 [Compound 7o] | 240 to 242 °C |

Task: Need melting point, item O=c1c2ccccc2n2c3c(cccc13)N(c1nccs1)CC2 [Compound 7j]
Result: 239 to 241 °C
